Provenance of the data: ChEMBL document CHEMBL2331458

Experiment: Selectivity index, ratio of LD50 for african green monkey Vero cells to IC50 for Trypanosoma brucei brucei 427-221
Format: toxicity, cell-based
Conditions: read-out: Ratio LD50/IC50
Non-standard residues stand in square brackets, D forms with d. Residues, ends and D or L forms follow the SMILES beside them. *: point of attachment. NMeF = CN[C@@H](Cc1ccccc1)C(=O)O; Oct(7)enoyl = C=CCCCCCC(=O)*; Oct(7)ynoyl = C#CCCCCCC(=O)*; NMeV = CN[C@H](C(=O)O)C(C)C; Hept6ynoyl = C#CCCCCC(=O)*; NMeA = CN[C@@H](C)C(=O)O; X3 = C=CCCCCC(=O)*
valueKind: selectivity ratio
Enter the number alone.

Example cases with answers are listed next.
compound: C=CCCCCCC(=O)N(C)[C@H](C(=O)N(C)[C@H](C(=O)N(C)[C@H](C(=O)N(C)[C@@H](C)C(=O)N(C)[C@@H](Cc1ccccc1)C(=O)N(C)C)C(C)C)C(C)C)C(C)C ({Oct(7)enoyl}-[NMeV][NMeV][NMeV][NMeA][NMeF]-NMe2)
selectivity ratio: 40
--
compound: C#CCCCCC(=O)N(C)[C@H](C(=O)N(C)[C@H](C(=O)N(C)[C@H](C(=O)N(C)[C@@H](C)C(=O)N(C)[C@@H](Cc1ccccc1)C(=O)N(C)C)C(C)C)C(C)C)C(C)C (Hept6ynoyl-[NMeV][NMeV][NMeV][NMeA][NMeF]-NMe2)
selectivity ratio: 120
--
compound: C=CCCCCC(=O)N(C)[C@H](C(=O)N(C)[C@H](C(=O)N(C)[C@H](C(=O)N(C)[C@@H](C)C(=O)N(C)[C@@H](Cc1ccccc1)C(=O)OC)C(C)C)C(C)C)C(C)C (X3-[NMeV][NMeV][NMeV][NMeA][NMeF]-OMe)
selectivity ratio: 41
--
compound: C#CCCCCC(=O)N(C)[C@H](C(=O)N(C)[C@H](C(=O)N(C)[C@H](C(=O)N(C)[C@@H](C)C(=O)N(C)[C@@H](Cc1ccccc1)C(=O)OC)C(C)C)C(C)C)C(C)C (Hept6ynoyl-[NMeV][NMeV][NMeV][NMeA][NMeF]-OMe)
selectivity ratio: 69

### Prompt Give selectivity ratio for C#CCCCCCC(=O)N(C)[C@H](C(=O)N(C)[C@H](C(=O)N(C)[C@H](C(=O)N(C)[C@@H](C)C(=O)N(C)[C@@H](Cc1ccccc1)C(=O)OC)C(C)C)C(C)C)C(C)C ({Oct(7)ynoyl}-[NMeV][NMeV][NMeV][NMeA][NMeF]-OMe)
### Response 45

### Prompt Give selectivity ratio for C=CCCCCC(=O)N(C)[C@H](C(=O)N(C)[C@H](C(=O)N(C)[C@H](C(=O)N(C)[C@@H](C)C(=O)N(C)[C@@H](Cc1ccccc1)C(=O)N(C)C)C(C)C)C(C)C)C(C)C (X3-[NMeV][NMeV][NMeV][NMeA][NMeF]-NMe2)
### Response 160

### Prompt Give selectivity ratio for C=CCCCCCC(=O)N(C)[C@H](C(=O)N(C)[C@H](C(=O)N(C)[C@H](C(=O)N(C)[C@@H](C)C(=O)N(C)[C@@H](Cc1ccccc1)C(=O)OC)C(C)C)C(C)C)C(C)C ({Oct(7)enoyl}-[NMeV][NMeV][NMeV][NMeA][NMeF]-OMe)
### Response 47

### Prompt Give selectivity ratio for C#CCCCCCC(=O)N(C)[C@H](C(=O)N(C)[C@H](C(=O)N(C)[C@H](C(=O)N(C)[C@@H](C)C(=O)N(C)[C@@H](Cc1ccccc1)C(=O)N(C)C)C(C)C)C(C)C)C(C)C ({Oct(7)ynoyl}-[NMeV][NMeV][NMeV][NMeA][NMeF]-NMe2)
### Response 270
